- System name: PRMT5⋅MTA (Homo sapiens (Human))
- Sequence (O14744 whole entry): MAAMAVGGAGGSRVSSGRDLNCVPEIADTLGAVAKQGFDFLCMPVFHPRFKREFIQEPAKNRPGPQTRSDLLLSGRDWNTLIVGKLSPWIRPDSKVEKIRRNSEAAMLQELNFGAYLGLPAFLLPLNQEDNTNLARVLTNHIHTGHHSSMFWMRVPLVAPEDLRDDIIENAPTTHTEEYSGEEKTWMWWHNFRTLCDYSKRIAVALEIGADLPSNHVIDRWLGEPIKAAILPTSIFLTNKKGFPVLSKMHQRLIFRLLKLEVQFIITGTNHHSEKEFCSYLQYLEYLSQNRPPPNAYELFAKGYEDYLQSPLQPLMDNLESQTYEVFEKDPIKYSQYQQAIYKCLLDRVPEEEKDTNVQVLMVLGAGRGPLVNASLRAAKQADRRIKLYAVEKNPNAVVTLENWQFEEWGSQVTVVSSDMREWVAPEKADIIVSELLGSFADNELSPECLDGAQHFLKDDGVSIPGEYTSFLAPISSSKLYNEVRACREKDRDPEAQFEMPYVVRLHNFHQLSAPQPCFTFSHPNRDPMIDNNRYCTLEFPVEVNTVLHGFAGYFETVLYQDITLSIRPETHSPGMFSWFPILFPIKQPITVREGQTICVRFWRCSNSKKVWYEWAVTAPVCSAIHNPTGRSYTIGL
- Sequence (Q9BQA1 whole entry partner): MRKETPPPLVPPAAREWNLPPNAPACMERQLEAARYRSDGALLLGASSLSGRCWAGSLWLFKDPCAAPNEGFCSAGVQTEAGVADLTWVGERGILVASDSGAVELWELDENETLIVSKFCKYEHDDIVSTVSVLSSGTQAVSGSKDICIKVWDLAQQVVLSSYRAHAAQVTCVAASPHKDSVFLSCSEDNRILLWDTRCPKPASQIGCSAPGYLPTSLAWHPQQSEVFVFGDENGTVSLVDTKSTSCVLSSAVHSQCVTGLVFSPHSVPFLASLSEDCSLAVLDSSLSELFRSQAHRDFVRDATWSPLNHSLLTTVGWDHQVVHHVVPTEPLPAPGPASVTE
- Procedure text: PRMT5 MTA enzyme activity test (Alpha detection)
- Type: biochemical
- Reported conditions: PRMT5/MEP50 1 nM with MTA 1 μM; read-out: PRMT5•MTA
pIC50: −log10 of the molar value.

{"columns": ["Molecule", "pIC50"],
 "data": [
  ["C=Cc1cc(-c2cnn(C)c2-c2c(F)c(Cl)cc(OC3(C)CC3)c2C#N)cc2c(CN)n[nH]c(=O)c12 [Compound 30]", "> 9.00"],
  ["Cn1ncc(-c2ccc3c(=O)[nH]cc(CN)c3c2)c1-c1c(F)c(Cl)cc(OC2CC2)c1C#N [Compound 1]", "8.00 to 9.00"]
]}
